Biological target: HuPP5 R225A (Homo sapiens, UniProt P53041, R400A)
Construct: 6xHis (N)
Sequence (P53041 1-499 R400A): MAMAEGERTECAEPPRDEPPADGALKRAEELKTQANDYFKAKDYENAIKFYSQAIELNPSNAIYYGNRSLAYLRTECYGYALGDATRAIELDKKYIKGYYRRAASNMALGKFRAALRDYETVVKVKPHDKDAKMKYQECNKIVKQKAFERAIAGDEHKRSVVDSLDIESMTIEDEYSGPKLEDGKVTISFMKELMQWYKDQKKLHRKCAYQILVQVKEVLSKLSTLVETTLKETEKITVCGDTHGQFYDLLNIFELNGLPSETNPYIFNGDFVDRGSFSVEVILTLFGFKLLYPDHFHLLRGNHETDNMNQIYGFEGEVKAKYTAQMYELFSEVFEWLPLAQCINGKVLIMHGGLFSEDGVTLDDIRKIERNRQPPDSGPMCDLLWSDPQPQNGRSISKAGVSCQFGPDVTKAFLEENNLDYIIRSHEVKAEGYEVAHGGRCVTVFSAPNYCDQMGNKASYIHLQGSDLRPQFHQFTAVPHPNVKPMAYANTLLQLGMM
Experiment: Inhibition of recombinant HuPP5 mutant R225A (p-NPP substrate)
Conditions: recombinant HuPP5 R225A; p-NPP; mean ± S.D., three independent experiments
PARAMETER: IC50 (µM)
Supply the numeric figure in µM, leaving out any unit text.

Write IC50 of C[C@@]12C(=O)OC(=O)[C@]1(C)[C@H]1CC[C@@H]2O1 ; system used: HuPP5 R225A (Homo sapiens, UniProt P53041, R400A)
21.9

Write IC50 of O=C(O)[C@@H]1[C@H](C(=O)O)[C@H]2CC[C@@H]1O2 [Endothall, endothall] ; system used: HuPP5 R225A (Homo sapiens, UniProt P53041, R400A)
1060

Write IC50 of O=C1OC(=O)[C@H]2[C@@H]1[C@@H]1CC[C@H]2O1 ; system used: HuPP5 R225A (Homo sapiens, UniProt P53041, R400A)
164
